# Test system: SNB-19 CNS
# protocol-description: NCI-60 one-dose screen, 48 h (100 = growth as untreated, 0 = no growth, -100 = all killed)
# conditions-used: 10 µM unless noted
Compounds without any hit were thinned out: in the full panel of roughly 83,000, 20% have a hit.
growth overview
Reply with just the number (in %).

Before answering, review these 4 worked examples.
O=C1C=CC(=O)N1C1c2ccccc2-c2ccccc21    105
C[n+]1c(/C=C/c2ccc([N+](=O)[O-])cc2)ccc2ccccc21    108
O=C(/C=C\c1cc(Br)ccc1O)/C=C/c1cc(Br)ccc1O    -52.7
O=C1c2ccccc2C(=O)c2sc(Nc3cccc(Cl)c3)nc21    42.8

Next up:
**Query** Quick one: growth of O=C(/C=C/C=C/c1ccccc1)c1ccco1 ?
**Result** 92.5
